tgt: VP1 capsid protein on BKV pseudovirions of genotype II (GBR-12; AB263920) (BK virus genotype II (GBR-12))
assay_overview: cell-based or functional assay
Neutralization PSV IC50: recorded values
Write the answer as a number in µg/mL, unit excluded.

# binder, Neutralization PSV IC50 (µg/mL)
measured = [
    ("antibody D7P6 (antibody, V domains shown) VH: EVQLLESGGGLVQPGGSLRLSCAASGFPFSSYAMSWVRQAPGKGLEWVSGITGSASGTYYADSVKGRFTISRDNSKNTLYLRMNSLRAEDTAVYYCAKEGAYSYDYWYFDLWGRGTLVTVSS VL: EIVLTQSPGTLSLSPGERATLSCRASQSVSGSYLAWYQQKPGQTPRLLIYGASSRATGIPDRFSGSGSGTDFTLTINRLDPEDFGVYYCQQYGSLVTFGGGSKVEIK", 0.0103),
    ("antibody E11P6 (antibody, V domains shown) VH: EVQLVESGGGLVQPGGSLRLSCAASGFTFRSYSMDWVRQAPGKGLEWVSYISGSSNQKYYTDSVRGRFTISRDNAKNSLFLQMNSLRAEDSAVYYCAREDDILTPLYGMDVWGPGTTVTVSS VL: EIVLTQSPDTLSLSPGARATLSCRASQSVRSNYLAWYQQKPGQAPRLLIYGASSRATAIPDRFSGSGSGTDLTLTITRLEPEDFAVYYCHQYASSPRTFGQGTKVEIK", 0.0028),
    ("antibody G8P7 (antibody, V domains shown) VH: QLQLQESGPGLVQPSETLSLTCTVSGGYISTSSYYWGWIRQPPGKGLEWIGSIEYSGSTYYNPSLKSRVTISVDTSKNQFSLKLSSVTAADTAVYYCASANSKYYDSGGYYAPGALDLWGQGTMVTVSS VL: EIVMTQSPATLSVSPGERATLSCRASQSVSSHLAWYQHKRGQAPRLLIYAASSRATGIPARFSGRGSGTEFTLTISSLQSEDFAVYYCQQYNNWPPGYSFGQGTKLEIK", 21.3),
]

Now for a further binder.
## Task Bench note: what Neutralization PSV IC50 did antibody C6P8 (antibody, V domains shown) VH: EVQLVESGGGLVQPGGSLKLSCAASGFTFSGSEIHWVRQASGKGLEWIGRVRSRANRHATGYSESVKGRFTISRDDSKNTASLQLNSLKIEDTAVYYCTGVRGVISRYFAMDVWGQGTTVTVSS VL: SYVLTQTPSVSVAPGQTARITCGGNNIGSNSVHWYQQKPGQAPILVVYDDSERPSGIPERFSGSNSGNTATLTISRVEGGDEADYQCQVWDRRGDLLVFGGGTKLTVL show?
## Result 0.44
